Data origin, for the record: PubChem BioAssay (NCI)

# Tested on: NCI-H226 lung
# protocolDescription: NCI tumour cell line growth inhibition, 48 h
Listed here: items and their measured GI50.

N#CC(C#N)=C/C=C(\Cl)c1ccc(Cl)cc1
7.69 µM
CC(=O)c1c(C(F)(F)F)n([O-])c2ccccc2[n+]1=O
1.46 µM
CC(CO)Nc1cc(-c2[nH]c3cccnc3c2-c2ccc(F)cc2)ccn1 (stereo unspecified)
> 23.8 µM
COc1cc(C)ccc1C(=O)c1ccc(C)cc1OC
4.45 µM

get_value(item= CCN1C(=O)N(CC)C2C1NN=c1s/c(=C\c3ccc(Cl)cc3Cl)c(=O)n12 (stereo unspecified) , readout=GI50) returns 0.129 µM

get_value(item= c1ccc(C2ONC3=NCCN32)cc1 (stereo unspecified) , readout=GI50) returns 25.3 µM

get_value(item= CCCN1C(=O)NC(=O)C(CC)(N2C(=O)c3c(F)c(F)c(F)c(F)c3C2=O)C1=O (stereo unspecified) , readout=GI50) returns 3.08 µM
